system.under.test: Prostaglandin E synthase (Homo sapiens)
Sequence (O14684 whole entry): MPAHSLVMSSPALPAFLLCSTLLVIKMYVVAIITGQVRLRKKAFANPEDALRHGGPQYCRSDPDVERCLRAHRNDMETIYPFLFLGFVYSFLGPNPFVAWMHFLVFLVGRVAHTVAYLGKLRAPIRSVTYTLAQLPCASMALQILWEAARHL
method.notes: Inhibition of mPGES-1 in microsomal membranes isolated from interleukin-1beta-stimulated human A549 cells using PGH2 as substrate assessed as PGE2 formation preincubated for 15 mins followed by substrate addition measured after 1 min by RP-HPLC analysis
readout.name: IC50 (nM)
Write down the numeric answer in nM and omit the unit.

Prompt: I would be grateful if you could share the reported IC50 for CC(C)CC(=O)c1c(O)cc(O)c(C(CC(C)C)C2=C(O)C(C)(C)C(=O)C(C)(C)C2=O)c1O (stereo unspecified) .
Response: 640

Prompt: I would be grateful if you could share the reported IC50 for O=C1C(C(c2ccccc2)c2c(O)c(C(=O)c3ccccc3)c(O)c(C(C3=C(O)c4ccccc4C3=O)c3ccccc3)c2O)=C(O)c2ccccc21 (stereo unspecified) .
Response: 480

Prompt: I would be grateful if you could share the reported IC50 for CC(C)CC(=O)c1c(O)c(C(CC(C)C)C2=C(O)C(C)(C)C(=O)C(C)(C)C2=O)c(O)c(C(CC(C)C)C2=C(O)C(C)(C)C(=O)C(C)(C)C2=O)c1O (stereo unspecified) .
Response: 220

Prompt: I would be grateful if you could share the reported IC50 for CC(C)C(=O)c1c(O)c([C@@H](C2=C(O)C(C)(C)C(=O)C(C)(C)C2=O)C(C)C)c(O)c2c1OC1=C(C(=O)C(C)(C)C(=O)C1(C)C)[C@@H]2C(C)C .
Response: 490

Prompt: I would be grateful if you could share the reported IC50 for CCCCCC(=O)c1c(O)c(C(C2=C(O)c3ccccc3C2=O)c2ccccc2)c(O)c(C(C2=C(O)c3ccccc3C2=O)c2ccccc2)c1O (stereo unspecified) .
Response: 430

Prompt: I would be grateful if you could share the reported IC50 for CC(C)C(=O)c1c(O)c(C(C2=C(O)c3ccccc3C2=O)c2ccccc2)c(O)c(C(C2=C(O)c3ccccc3C2=O)c2ccccc2)c1O (stereo unspecified) .
Response: 810

====

Tested on: Jurkat
method.notes: Cytotoxicity against human Jurkat cells assessed as induction of cell death after 48 hrs by MTT assay
Assay type: functional, cell-based
Consider the following molecules; for each one, report its pEC50.
Schema: pEC50 number; meaning minus log10 of the concentration expressed in molar units.

Prompt: I would be grateful if you could share the reported pEC50 for CCCCCC(=O)c1c(O)c([C@@H](CC(C)C)C2=C(O)C(C)(C)C(=O)C(C)(C)C2=O)c(O)c([C@H](C2=C(O)C(C)(C)C(=O)C(C)(C)C2=O)C(C)C)c1O .
Response: 4.66

Prompt: I would be grateful if you could share the reported pEC50 for CC(C)C(=O)c1c(O)c(C(C2=C(O)CC(C)(C)CC2=O)C(C)C)c(O)c(C(C2=C(O)CC(C)(C)CC2=O)C(C)C)c1O (stereo not drawn) .
Response: 5.70

====

Consider the following compounds; for each one, report its pIC50.
system.under.test: Polyunsaturated fatty acid 5-lipoxygenase (Homo sapiens)
Sequence (P09917 whole entry): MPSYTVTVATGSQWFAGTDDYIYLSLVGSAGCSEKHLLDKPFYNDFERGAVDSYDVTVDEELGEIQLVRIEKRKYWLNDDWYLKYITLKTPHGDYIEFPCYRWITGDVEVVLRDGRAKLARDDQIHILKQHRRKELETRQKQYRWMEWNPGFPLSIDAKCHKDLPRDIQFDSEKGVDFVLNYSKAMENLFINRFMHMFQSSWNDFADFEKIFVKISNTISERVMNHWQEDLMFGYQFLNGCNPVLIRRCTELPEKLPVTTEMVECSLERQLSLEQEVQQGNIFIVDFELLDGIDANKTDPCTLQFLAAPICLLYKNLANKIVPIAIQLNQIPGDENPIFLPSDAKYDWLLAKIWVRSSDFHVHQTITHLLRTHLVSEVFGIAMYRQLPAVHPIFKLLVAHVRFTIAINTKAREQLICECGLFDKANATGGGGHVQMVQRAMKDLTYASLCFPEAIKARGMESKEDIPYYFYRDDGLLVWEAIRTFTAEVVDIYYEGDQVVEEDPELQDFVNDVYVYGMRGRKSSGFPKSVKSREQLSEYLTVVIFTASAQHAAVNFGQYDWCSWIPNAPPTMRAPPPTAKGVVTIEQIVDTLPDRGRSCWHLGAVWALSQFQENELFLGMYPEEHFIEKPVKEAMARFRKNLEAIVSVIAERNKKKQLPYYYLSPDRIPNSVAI
method.notes: Inhibition of 5-LO in ionophore A23187-stimulated human PMNL using arachidonic acid as substrate assessed as formation of LTB4, 5(S),12(S)-DiHETE, 5-H(p)ETE preincubated for 15 mins followed by substrate and ionophore addition measured after 10 mins by HPLC analysis
Schema: pIC50 number; meaning minus log10 of the concentration expressed in molar units.

Prompt: I would be grateful if you could share the reported pIC50 for CC(C)C(=O)c1c(O)c(C(C2=C(O)c3ccccc3C2=O)c2ccccc2)c(O)c(C(C2=C(O)c3ccccc3C2=O)c2ccccc2)c1O (centres undefined) .
Response: 5.85

Prompt: I would be grateful if you could share the reported pIC50 for CC(C)CC(=O)c1c(O)c(C(C2=C(O)c3ccccc3C2=O)c2ccccc2)c(O)c(C(C2=C(O)c3ccccc3C2=O)c2ccccc2)c1O (centres undefined) .
Response: 5.68

Prompt: I would be grateful if you could share the reported pIC50 for CCCCCC(=O)c1c(O)c(C(C2=C(O)c3ccccc3C2=O)C(C)C)c(O)c(C(C2=C(O)c3ccccc3C2=O)C(C)C)c1O (centres undefined) .
Response: 5.82

Prompt: I would be grateful if you could share the reported pIC50 for CC(C)CC(=O)c1c(O)c(C(C2=C(O)c3ccccc3C2=O)C(C)C)c(O)c(C(C2=C(O)c3ccccc3C2=O)C(C)C)c1O (centres undefined) .
Response: 5.89

====

Consider the following compounds; for each one, report its pIC50.
system.under.test: Polyunsaturated fatty acid 5-lipoxygenase (Homo sapiens, UniProt P09917)
method.notes: Inhibition of 5-LO in ionophore A23187-stimulated human PMNL using arachidonic acid as substrate assessed as formation of LTB4, 5(S),12(S)-DiHETE, 5-H(p)ETE preincubated for 15 mins followed by substrate and ionophore addition measured after 10 mins by HPLC analysis
Schema: pIC50 number; meaning minus log10 of the concentration expressed in molar units.

Prompt: Could you share what pIC50 was measured for CC(C)C(=O)c1c(O)c([C@@H](C2=C(O)C(C)(C)C(=O)C(C)(C)C2=O)C(C)C)c(O)c2c1OC1=C(C(=O)C(C)(C)C(=O)C1(C)C)[C@@H]2C(C)C , tested on Polyunsaturated fatty acid 5-lipoxygenase (Homo sapiens, UniProt P09917)?
Response: 6.01

Prompt: Could you share what pIC50 was measured for CC(C)CC(=O)c1c(O)c(C(CC(C)C)C2=C(O)C(C)(C)C(=O)C(C)(C)C2=O)c(O)c(C(CC(C)C)C2=C(O)C(C)(C)C(=O)C(C)(C)C2=O)c1O (centres undefined) , tested on Polyunsaturated fatty acid 5-lipoxygenase (Homo sapiens, UniProt P09917)?
Response: 6.18

Prompt: Could you share what pIC50 was measured for CCCCCC(=O)c1c(O)c(C(C2=C(O)C(C)(C)C(=O)C(C)(C)C2=O)C(C)C)c(O)c2c1OC1=C(C(=O)C(C)(C)C(=O)C1(C)C)C2C(C)C (centres undefined) , tested on Polyunsaturated fatty acid 5-lipoxygenase (Homo sapiens, UniProt P09917)?
Response: 5.89

====

system.under.test: Polyunsaturated fatty acid 5-lipoxygenase (Homo sapiens)
method.notes: Inhibition of recombinant human 5-LO expressed in Escherichia coli BL21 using arachidonic acid as substrate assessed as formation of LTB4, 5(S),12(S)-DiHETE, 5-H(p)ETE preincubated for 5 to 10 mins followed by substrate addition measured after 10 mins by HPLC
readout.name: IC50 (µM)
Write down the numeric answer in µM and omit the unit.

Prompt: I would be grateful if you could share the reported IC50 for CC(C)C(=O)c1c(O)c([C@H](C2=C(O)C(C)(C)C(=O)C(C)(C)C2=O)C(C)C)c(O)c([C@H](C2=C(O)C(C)(C)C(=O)C(C)(C)C2=O)C(C)C)c1O .
Response: 5

====

system.under.test: Polyunsaturated fatty acid 5-lipoxygenase (Homo sapiens, UniProt P09917)
Sequence (P09917 whole entry): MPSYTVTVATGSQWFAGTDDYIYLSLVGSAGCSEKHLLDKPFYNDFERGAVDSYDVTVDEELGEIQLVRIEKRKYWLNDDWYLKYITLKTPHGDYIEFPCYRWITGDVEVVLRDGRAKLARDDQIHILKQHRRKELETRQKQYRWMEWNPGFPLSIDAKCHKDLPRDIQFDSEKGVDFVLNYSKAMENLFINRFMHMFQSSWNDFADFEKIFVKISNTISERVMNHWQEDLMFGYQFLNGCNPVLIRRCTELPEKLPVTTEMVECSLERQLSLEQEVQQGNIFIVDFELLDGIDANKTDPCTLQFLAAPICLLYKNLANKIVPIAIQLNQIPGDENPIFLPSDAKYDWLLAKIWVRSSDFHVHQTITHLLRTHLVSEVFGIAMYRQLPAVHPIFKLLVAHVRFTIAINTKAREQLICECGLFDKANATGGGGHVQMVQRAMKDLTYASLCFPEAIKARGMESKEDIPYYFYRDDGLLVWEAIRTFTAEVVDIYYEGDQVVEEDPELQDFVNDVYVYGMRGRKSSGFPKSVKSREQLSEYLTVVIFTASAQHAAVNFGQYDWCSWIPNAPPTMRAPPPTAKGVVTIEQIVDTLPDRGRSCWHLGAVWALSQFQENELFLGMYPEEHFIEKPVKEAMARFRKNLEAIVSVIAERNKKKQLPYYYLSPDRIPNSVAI
method.notes: Inhibition of recombinant human 5-LO expressed in Escherichia coli BL21 using arachidonic acid as substrate assessed as formation of all-trans isomer of LTB4, 5-H(P)ETE preincubated for 5 to 10 mins followed by substrate addition measured after 10 mins by HPLC analysis
Consider the following molecules; for each one, report its pIC50.
Schema: pIC50 number; meaning minus log10 of the concentration expressed in molar units.

Prompt: I would be grateful if you could share the reported pIC50 for O=C1C(C(c2ccccc2)c2c(O)c(C(=O)c3ccccc3)c(O)c(C(C3=C(O)c4ccccc4C3=O)c3ccccc3)c2O)=C(O)c2ccccc21 (centres undefined) .
Response: 5.52

Prompt: I would be grateful if you could share the reported pIC50 for CC(C)C(=O)c1c(O)c(C(C2=C(O)CC(C)(C)CC2=O)C(C)C)c(O)c(C(C2=C(O)CC(C)(C)CC2=O)C(C)C)c1O (centres undefined) .
Response: 4.60

Prompt: I would be grateful if you could share the reported pIC50 for CCCCCC(=O)c1c(O)c([C@H](C2=C(O)C(C)(C)C(=O)C(C)(C)C2=O)C(C)C)c(O)c([C@H](C2=C(O)C(C)(C)C(=O)C(C)(C)C2=O)C(C)C)c1O .
Response: 5.12

Prompt: I would be grateful if you could share the reported pIC50 for CCCCCC(=O)c1c(O)c(C(CC(C)C)C2=C(O)C(C)(C)C(=O)C(C)(C)C2=O)c(O)c(C(CC(C)C)C2=C(O)C(C)(C)C(=O)C(C)(C)C2=O)c1O (centres undefined) .
Response: 5.46
